target: acid ceramidase (hACR) (Homo sapiens, UniProt Q13510); construct: expressed in transfected cells; experiment: Acid ceramidase inhibition, biochemical fluorescent assay with cell lysates overexpressing acid ceramidase (substrate Rbm14-12); details: cell lysate, 1 hr preincubation at RT, pH 4.5, Rbm14-12 6.3 μM; read-out: IC50 hACR
Sequence (Q13510 22-395): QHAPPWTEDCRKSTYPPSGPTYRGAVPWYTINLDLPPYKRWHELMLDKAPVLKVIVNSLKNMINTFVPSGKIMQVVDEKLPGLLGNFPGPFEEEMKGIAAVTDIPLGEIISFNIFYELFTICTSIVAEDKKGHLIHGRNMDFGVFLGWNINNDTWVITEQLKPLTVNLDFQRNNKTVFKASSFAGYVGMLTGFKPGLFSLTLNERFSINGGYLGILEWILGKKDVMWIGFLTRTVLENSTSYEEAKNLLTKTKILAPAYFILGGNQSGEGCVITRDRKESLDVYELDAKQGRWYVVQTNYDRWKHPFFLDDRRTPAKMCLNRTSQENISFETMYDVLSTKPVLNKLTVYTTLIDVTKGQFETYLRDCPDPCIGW
pIC50: −log10 of the molar value.
Reported pIC50 values follow for various compounds

Past entries and their recorded results:
COc1nc(C(C)(C)C)cn1C(=O)NC1CCCC(F)(F)C1 (centres unmarked)	< 6.00
CCOc1nccn1C(=O)NCCC(C)C	6.00 to 6.70
COc1nc(C2CCCCC2)cn1C(=O)NCCC(C)C	6.00 to 6.70
O=C(NCCc1ccccc1)n1cnc(-c2ccccc2)c1	> 6.70
COc1nc(C)cn1C(=O)NCC#CC(C)C	> 6.70

For `Cc1cn(C(=O)NC2CCC(F)(F)CC2)c(Oc2ccccc2)n1` the compound record lists pIC50 as > 6.70

Input `COc1nc(C2CCOCC2)cn1C(=O)NCCC(C)C` . Output pIC50: 6.00 to 6.70

Just so you know, measured pIC50 for `Cc1cn(C(=O)NCCCC2(C(F)(F)F)CC2)c(OCCN2CCN(C)CC2)n1` came out at > 6.70

====

experiment: Compound solubility in water; type: physicochemical
attribute measured: solubility (µg/mL)
Answer format: numeric, µg/mL implied, no suffix.

Previously resolved entries follow.
COc1nc(C)cn1C(=O)NCCC1CCCC1(F)F (stereo not drawn)	32
COc1nc(Cl)cn1C(=O)NC1CC1	26
CN(C)Cc1cncc(-c2cn(C(=O)NCCc3ccccc3)cn2)c1	30.8

The reported value for `CC(C)CCNC(=O)n1cnc(CC2CCN(C)CC2)c1` in terms of solubility is 21.7

compound `CC(C)CCNC(=O)n1cnc(-c2cncs2)c1` , solubility observed: 25.1

solubility in this record for `Cc1cn(C(=O)NCCc2ccccc2)c(OCCN2CCOCC2)n1` : 35

// `Cc1cn(C(=O)NC2CCC(F)(F)CC2)c(Oc2cccc(C#N)c2)n1` : solubility value = 8

Value of solubility reported for the compound `Cc1cn(C(=O)NC2CCC(F)(F)CC2)c(Oc2ccc(C#N)cc2)n1` is 13

Recorded result, `O=C(NCCc1ccccc1)n1cnc(-c2ccccc2)c1` , solubility: 0.2

Kindly note the recorded solubility for `COc1nc(C2CCCCC2)cn1C(=O)NCCC(C)C` , which is 13

solubility reported for this compound `COc1nc(-c2ccccc2)cn1C(=O)NC1CC1` : 27

Value of solubility reported for the compound COc1nc(C)cn1C(=O)NC1CCCC(F)(F)C1 (stereo not drawn) is 29

Short answer for `Cc1ccc(-c2cn(C(=O)NCCc3ccccc3)cn2)cn1` : solubility was 3

Given item `COc1nc(C(C)(C)C#N)cn1C(=O)NCCC(C)C` , the value recorded as its solubility is 23

Record `COc1nccn1C(=O)NCCc1ccccc1` , field solubility: 26

The reported value for `COc1nc(C(C)(C)C)cn1C(=O)NCCCC(C)C` in terms of solubility is 10

# solubility of `O=C(NCCCc1ccccc1)n1cnc(-c2ccccc2)c1` = 1.3

What the record says about `COc1nc(-c2cccnn2)cn1C(=O)NCCC(C)C` : solubility is 33

Record `COc1nccn1C(=O)NCCCCc1ccccc1` . Reported solubility: 22

For reference, reported solubility for `Cc1cn(C(=O)NCC#Cc2ccccc2)c(OCCN2CCOCC2)n1` stands at 31

# solubility (compound: `COc1nc(C(C)(C)C)cn1C(=O)NCCC1(C(F)(F)F)CC1` ) is 17

====

target: acid ceramidase (hACR) (Homo sapiens, UniProt Q13510); construct: expressed in transfected cells; assay: Acid ceramidase inhibition, biochemical fluorescent assay with cell lysates overexpressing acid ceramidase (substrate Rbm14-12); conditions: cell lysate, 1 hr preincubation at RT, pH 4.5, Rbm14-12 6.3 μM; read-out: IC50 hACR
Known IC50 of a selection of molecules

The recorded IC50 for `COc1nc(C(C)(C)C)cn1C(=O)NCCCC(C)C` is < 200 nM

// recorded IC50 for `Cc1ccc(-c2cn(C(=O)NCCC(C)C)cn2)cn1` : > 1000 nM

Lab book: IC50 of `COc1nc(C)cn1C(=O)NCCCC(F)(F)F` noted as 200 to 1000 nM
